Test Name: gradient 5% acetonitrile 3 min, to 50% in 2 min, to 85% in 15 min, held 3 min, 100 µL/min
Stated Conditions: column: Zorbax Extend-C18 2.1 x 50 mm; eluents: water / acetonitrile, 0.1% formic acid
For each entry below, report its RP-LC retention time value.
// return the numeric value with its unit appended

The molecule CC(C)(C)OC(=O)N1CCN(c2ncc(C(=O)NCc3ccccc3)c(N)n2)CC1 showed RP-LC retention time equal to 743 s

The molecule Cc1[nH]c(C(=O)N2CCC(CC(=O)NCc3ccccc3)CC2)c(C)c1C(=O)OC(C)C showed RP-LC retention time equal to 802 s

The molecule COc1ccc(-n2ncc3c(=O)n(Cc4nc(-c5ccccc5C)no4)cnc32)cc1 showed RP-LC retention time equal to 1060 s

The molecule CN1C2CCC1CC(OC(=O)C(CO)c1ccccc1)C2 (centres undefined) showed RP-LC retention time equal to 638 s

The molecule CCCNC(=O)C1CCCN(c2ccc(SCC(=O)Nc3cccc(Cl)c3)nn2)C1 (centres undefined) showed RP-LC retention time equal to 683 s

The molecule Cn1ccc2cc(S(=O)(=O)N3CCC(C(=O)N4CCN(c5ccccn5)CC4)CC3)ccc21 showed RP-LC retention time equal to 648 s

The molecule Cn1ncc2c(N3CCSCC3)nc(C(=O)NCc3cccnc3)nc21 showed RP-LC retention time equal to 570 s

The molecule O=C(NCC1CN(c2ccc(F)cc2)C(=O)O1)c1cc(Cl)ccc1Cl (centres undefined) showed RP-LC retention time equal to 797 s

The molecule CCOc1ccc(CNS(=O)(=O)c2cc(-c3cnn4c(C)cc(C)nc34)ccc2C)cc1OCC showed RP-LC retention time equal to 1040 s

---

Test Name: gradient 5% acetonitrile 3 min, to 50% in 2 min, to 85% in 15 min, held 3 min, 100 µL/min
Stated Conditions: column: Zorbax Extend-C18 2.1 x 50 mm; eluents: water / acetonitrile, 0.1% formic acid
Sorting guide: entries reporting RP-LC retention time beneath 900 s go in the Fulfilled pile, the rest go in the Not fulfilled pile.

Does the reported RP-LC retention time of the following molecule sit strictly below 900 s? COCCc1noc(C2Cc3ccccc3N2C(=O)NCc2ccc(C)cc2)n1 (centres undefined)
Not fulfilled

Does the reported RP-LC retention time of the following molecule sit strictly below 900 s? Cc1ccn2cc(-c3ccc(NC(=O)Nc4ccc(F)cc4)cc3)nc2n1
Fulfilled

Does the reported RP-LC retention time of the following molecule sit strictly below 900 s? Cc1nnc(CNC(=O)C(C)n2nnc3ccccc3c2=O)o1 (centres undefined)
Fulfilled

Does the reported RP-LC retention time of the following molecule sit strictly below 900 s? O=C(C1CC1)N1CCc2sc(S(=O)(=O)Nc3cccc(F)c3)cc2C1
Fulfilled

Does the reported RP-LC retention time of the following molecule sit strictly below 900 s? COc1cccc(Cc2nc(Cc3nc(-c4ccccc4)oc3C)no2)c1
Not fulfilled

Does the reported RP-LC retention time of the following molecule sit strictly below 900 s? Cc1ccc(S(=O)(=O)Nc2ccc(-c3cn4cccc(C)c4n3)cc2)cc1C
Fulfilled

Does the reported RP-LC retention time of the following molecule sit strictly below 900 s? Cc1cccc(CNC2=NCCNC23CCN(S(=O)(=O)c2cc(C)cc(C)c2)CC3)c1
Fulfilled

Does the reported RP-LC retention time of the following molecule sit strictly below 900 s? Cc1ccc(-c2cc(N3CCN(C(=O)c4cc(C)cc(C)c4)CC3)ncn2)cc1
Fulfilled

Does the reported RP-LC retention time of the following molecule sit strictly below 900 s? CCc1ccccc1NC(=O)Nc1ccc2nncn2c1
Fulfilled

Does the reported RP-LC retention time of the following molecule sit strictly below 900 s? COCCn1cc(C(=O)NCC(C)C)c2nn(-c3ccccc3)c(=O)c-2c1
Fulfilled

Does the reported RP-LC retention time of the following molecule sit strictly below 900 s? O=C(NCc1ccccc1Cl)c1nnc(-c2ccc(S(=O)(=O)N3CCCC3)cc2)o1
Not fulfilled

Does the reported RP-LC retention time of the following molecule sit strictly below 900 s? CCc1ccc2oc(C(=O)NCC(c3ccccc3)N(C)C)cc(=O)c2c1 (centres undefined)
Fulfilled

Does the reported RP-LC retention time of the following molecule sit strictly below 900 s? CCCCn1c(=O)c2ccccc2n(Cc2nc(-c3ccc(OCC)c(OC)c3)no2)c1=O
Not fulfilled

Does the reported RP-LC retention time of the following molecule sit strictly below 900 s? O=C(Cn1nc(N2CCOCC2)c2ccccc2c1=O)Nc1ccc2c(c1)OCO2
Fulfilled

Does the reported RP-LC retention time of the following molecule sit strictly below 900 s? COc1ccccc1NC(=O)N1CCC(CNC(=O)c2ccccc2C(F)(F)F)CC1
Fulfilled

Does the reported RP-LC retention time of the following molecule sit strictly below 900 s? COc1cc(Cl)c(C)cc1NC(=O)Cc1nnc(-c2ccc3ncccc3c2)o1
Fulfilled

Hey, just so you know, these numbers are from the METLIN SMRT retention time set (Domingo-Almenara et al. 2019).
